Can you tell me composite z-score for the items I'm about to list?
# measurementNotes: small-molecule binders of probe aInhba, primary screen, biochemical, small-molecule microarray, 635/667 nm fluorescence (AID 1148);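 note: score merges 667nm spot fluorescence with signal-to-noise for antibody binding to printed compounds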
# testConditions: higher = more signal
Field format: numeric only.

Looking up C=CCC(OC(C)=O)[C@@H]1[C@@H](N(Cc2ccc(-c3cccc(C(F)(F)F)c3)o2)C(=O)c2ccc(C)cc2)c2cc(OCCCO)ccc2N1C(=O)Cc1ccc2ccccc2c1 (stereo partly specified) , I see its composite z-score listed as -0.024

Form field composite z-score, entry COc1cc(C(O)C2C=CC3C(=O)NC(=O)C3N2Nc2ccccn2)cc(OC)c1OC (stereo unspecified) : 0.0448

Looking up CCC[C@@H]1C[C@@]1(CCC)[C@@H](NS(=O)(=O)c1cccc2cccnc12)c1ccc(Cl)cc1 , I see its composite z-score listed as 0.0966

Per the records, this molecule ( CC(C)[Si](C#Cc1ccc(Oc2ccccc2)cc1)(O[Si](C#Cc1ccc(Oc2ccccc2)cc1)(C(C)C)C(C)C)C(C)C ) has composite z-score equal to 0.0403

Entry NCCCCCCNC(=O)[C@@H]1C[C@@H]2C(=O)NCC(=O)N2[C@@H]1c1ccc(O)cc1 — recorded composite z-score = -0.104

get_value(item= O=C1C2C=CC(C(O)CCc3ccccc3)N(Nc3ccccc3F)C2C(=O)N1c1ccccc1 (stereo unspecified) , readout=composite z-score) returns 0.131

Value of measured composite z-score for the entry CCOC(=O)C[C@H]1[C@H](OC(=O)c2cc3ccccc3oc2=O)[C@@H](NC(=O)c2ccccc2)c2cc(OCCCO)ccc2N1C(=O)c1ccc2ccccc2n1 : -0.0405

Form field composite z-score, entry C=CCC(OC(C)=O)[C@@H]1[C@@H](N(Cc2ccc(-c3ccccc3)cc2)C(=O)c2ccc(-c3ccccc3)cc2)c2cc(OCCCO)ccc2N1C(=O)Cc1ccc2ccccc2c1 (stereo partly specified) : 0.0051

get_value(item= O=C1c2ccccc2[C@](Cc2ccccc2I)(C(=O)NCCN2CCOCC2)[C@H](c2ccc(CO)cc2)N1C1CCCCC1 , readout=composite z-score) returns 0.216

For reference, reported composite z-score for CCCC=C(CCC)[C@@H](NC(=O)c1cccs1)c1ccc(C(F)(F)F)cc1 stands at 0.473

Sample COC(=O)c1c(CC[C@@H](CO)NC(=O)NCCn2cc(C3(O)CCCC3)nn2)oc(C(C)=O)c1C(=O)OC ; composite z-score observed: -0.203

For COc1ccc(CCNC(=O)[C@@H]2c3ccccc3C(=O)N(Cc3ccccc3Cl)[C@H]2c2ccc(CO)cc2)cc1 the molecule record lists composite z-score as -0.0645

According to the records, this molecule [N-]=[N+]=Nc1ccccc1[C@H]1OC(c2ccc(OCCCO)cc2)=N[C@@]1(CCS(=O)(=O)c1ccccc1)C(=O)NCC(O)CO (stereo partly specified) displays composite z-score of 0.15

Input CCOC(=O)C[C@H]1[C@H](OC(=O)c2ccc(C(=O)c3ccccc3)cc2)[C@@H](NC(=O)c2ccccc2)c2cc(OCCCO)ccc2N1C(=O)Cc1ccc(OC)cc1 . Output composite z-score: -0.0413

Looking up COC(=O)[C@@]1(Cc2ccc(F)cc2)[C@H]2c3cc(C(=O)N(C)C)n(Cc4ccccc4)c3C[C@H]2CN1C(=O)c1ccccc1 , I see its composite z-score listed as 0.218

composite z-score in this record for O=C1C2C=CC(C(O)c3cc(C(F)(F)F)cc(C(F)(F)F)c3)N(n3cnnc3)C2C(=O)N1Cc1ccccc1 (stereo unspecified) : -0.0719

// composite z-score lookup, molecule = CCOC(=O)C[C@H]1[C@H](OC(=O)c2ccc(C(=O)c3ccccc3)cc2)[C@@H](NC(=O)CC(C)C)c2cc(OCCCO)ccc2N1C(=O)c1ccc2ccccc2n1 , result: -0.003

Looking up CN(C)C(=O)[C@]1(Cc2ccccc2N=[N+]=[N-])N=C(c2ccc(OCCCO)cc2)O[C@@H]1c1ccccc1N=[N+]=[N-] , I found its composite z-score recorded as -0.0162

molecule CCCCN1CC=CC23O[C@@H]4C=CCCOC(=O)C4[C@H]2C(=O)N(CCCCCCO)[C@@H]3C1=O (stereo partly specified) , composite z-score observed: -0.208

Sure, the documented composite z-score for COc1ccc(C#Cc2ccc3c(c2)[C@]2(C(=O)N3)[C@H](C(=O)Nc3nc4ccccc4s3)[C@H]3C(=O)O[C@H](c4ccccc4)[C@H](c4ccccc4)N3[C@@H]2c2ccc(O)cc2)cc1 is 1.43

composite z-score reading for C[N+](C)(C)CCCCNC(=O)[C@@H]1C[C@@H]2C(=O)N[C@@H](Cc3ccccc3)C(=O)N2[C@@H]1c1cccc(OCCO)c1 : -0.179
